assay: endothelial E-selectin upregulation by compounds – imaging, HUVEC, cherry-picked samples, dose response (AID 977605); conditions: HUVEC E-selectin immunostaining, at 19.5 µM (top of the series), percent of TNF-alpha response over vehicle;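 note: signal is the share of imaged cells scored positive for E-selectin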
measured_property: activation (%)
Write the number in % without appending the unit.

Query string: Please report the recorded activation for "COc1ccc(S(=O)(=O)Nc2ccc3c(c2)C(=O)N([C@@H](C)CO)C[C@H](C)[C@@H](CN(C)Cc2ccc(Cl)c(Cl)c2)O3)cc1" .
Result string: -0.097

Query string: For "CN(CC(=O)Nc1cccc(F)c1)CC(=O)N1CCc2ccccc21" , what is its reported activation?
Result string: 0.11

Query string: Look up activation for this compound: CCCN1CCN(C(=O)c2ccc(CS(=O)c3ccc(Cl)cc3)o2)CC1 (centres undefined)
Result string: 0.214

Query string: // activation lookup, key: CCCCNC(=O)N1c2ccccc2CC1C (centres undefined)
Result string: 0.083

Query string: Which activation value is on record for "C[C@H](CO)N1C[C@H](C)[C@@H](CN(C)Cc2ccc(C(F)(F)F)cc2)Oc2c(NS(C)(=O)=O)cccc2C1=O" ?
Result string: -0.122

Query string: Entry "CCCN1[C@H](CO)[C@H](c2ccc(C#Cc3ccccc3)cc2)[C@@H]1CNC1CCCC1" : reported activation = ?
Result string: 4.52

Query string: Any idea what its activation is? The compound is "C[C@@H]1CN([C@H](C)CO)C(=O)c2cc(NC(=O)Nc3ccc(F)cc3)ccc2O[C@H]1CN(C)S(=O)(=O)c1cccs1"
Result string: 0.059

Query string: Look up activation for this compound: "Cc1ccc(CSc2nc3[nH]ncc3c(=O)[nH]2)cc1"
Result string: 24.6

Query string: Fill in the blank: the reported activation of "COC(=O)c1sc2nc(SCC(=O)N(C)c3ccccc3)n(N)c(=O)c2c1C" is ____.
Result string: 1.12

Query string: What does the data say about its activation? Entry: "N#Cc1ccc(-c2csc(NC3=NCCCCC3)n2)cc1"
Result string: -0.002

Query string: // returns reported activation for input "COc1ccc(NC(=O)Nc2cccc3c2O[C@H](CN(C)Cc2ccc(C(=O)Nc4ccccc4N)cc2)[C@H](C)CN([C@H](C)CO)C3=O)cc1"
Result string: 1.32

Query string: Any idea what its activation is? The compound is "CN(CC(=O)Nc1ccccc1Br)C(=O)CNC(=O)C1CCCCC1"
Result string: 0.383

Query string: Can you share its activation? I mean this compound: "O=C(NC1CCCC1)c1cc(-c2ccccc2O)on1"
Result string: 0.323

Query string: # lookup: activation of "CN(CC(=O)Nc1ccc(Cl)c(Cl)c1)C1CCCCC1"
Result string: -0.064

Query string: Recorded activation for "COc1ccc(CN(C)C[C@H]2Oc3ccc(NC(=O)c4ccncc4)cc3C(=O)N([C@H](C)CO)C[C@@H]2C)cc1" , please?
Result string: 0.118

Query string: Please look up its activation: CNC(=O)Oc1ccc2c(c1)[C@]1(C)CCN(C)C1N2C (some centres undefined)
Result string: -0.106

Query string: What does the record list as activation for "C[C@H](CO)N1C[C@H](C)[C@@H](CN(C)Cc2ccc(C(F)(F)F)cc2)Oc2ccc(NC(=O)CCC(F)(F)F)cc2C1=O" ?
Result string: 0.441

Query string: Field request: activation | item: "CS(=O)(=O)N1CCc2cc(S(=O)(=O)NCCNS(=O)(=O)c3ccc4c(c3)CCN4S(C)(=O)=O)ccc21"
Result string: 0.185

Query string: Which activation reading was recorded for the compound O=C(CN(CC1CCCO1)C(=O)CNS(=O)(=O)c1ccccc1)NCc1ccc(F)cc1 (centres undefined) ?
Result string: 1.46
